FYI, the data here is from patent US9493478B2.

Molecular target: PI3Kα (p110α/p85α)(h) (Homo sapiens, UniProt P42336)
Sequence (P42336 whole entry, one chain of several): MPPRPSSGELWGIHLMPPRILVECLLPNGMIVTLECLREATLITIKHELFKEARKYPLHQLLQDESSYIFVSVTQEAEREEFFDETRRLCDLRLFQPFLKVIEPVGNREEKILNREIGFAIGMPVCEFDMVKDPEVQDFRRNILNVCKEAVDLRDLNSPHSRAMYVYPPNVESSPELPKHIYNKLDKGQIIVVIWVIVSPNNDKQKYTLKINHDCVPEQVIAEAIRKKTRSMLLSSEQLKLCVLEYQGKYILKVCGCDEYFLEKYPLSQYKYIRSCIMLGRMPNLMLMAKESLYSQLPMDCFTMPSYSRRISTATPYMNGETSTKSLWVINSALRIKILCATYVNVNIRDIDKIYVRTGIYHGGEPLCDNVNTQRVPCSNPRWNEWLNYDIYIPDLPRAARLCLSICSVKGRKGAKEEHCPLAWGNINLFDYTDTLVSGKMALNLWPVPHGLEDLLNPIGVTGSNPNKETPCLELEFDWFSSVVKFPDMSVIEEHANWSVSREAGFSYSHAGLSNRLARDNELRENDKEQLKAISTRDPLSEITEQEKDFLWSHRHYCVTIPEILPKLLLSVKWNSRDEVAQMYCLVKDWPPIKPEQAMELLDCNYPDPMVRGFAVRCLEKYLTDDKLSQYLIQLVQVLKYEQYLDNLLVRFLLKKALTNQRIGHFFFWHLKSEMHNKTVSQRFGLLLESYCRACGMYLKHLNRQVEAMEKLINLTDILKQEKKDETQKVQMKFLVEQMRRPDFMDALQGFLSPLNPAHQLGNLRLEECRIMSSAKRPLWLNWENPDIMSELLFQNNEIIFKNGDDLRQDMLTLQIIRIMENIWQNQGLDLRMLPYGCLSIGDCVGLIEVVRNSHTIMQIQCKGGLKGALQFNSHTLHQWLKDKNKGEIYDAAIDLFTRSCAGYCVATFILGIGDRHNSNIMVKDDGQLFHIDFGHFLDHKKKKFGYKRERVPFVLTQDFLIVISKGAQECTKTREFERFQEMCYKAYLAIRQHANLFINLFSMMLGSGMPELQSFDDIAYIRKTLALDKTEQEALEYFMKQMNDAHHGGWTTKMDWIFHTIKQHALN
Assay: Assay for phosphatidylinositol 3-kinase alpha (PI3Kα) activity, PI3K-HTRF kit
Assay type: biochemical
Conditions: TR-FRET; enzyme 0.3625 μg/ml, 10 μM PIP2, 10 μM ATP

| cpd-smiles | IC50 (nM) |
| --- | --- |
| CCOc1ccc(-c2cncc3cc(/C=C4\SC(=O)NC4=O)oc23)cc1Cl | 5 |
| COc1ccccc1NC(=O)c1cncc2cc(/C=C3\SC(=O)NC3=O)oc12 | 17 |
| O=C1NC(=O)/C(=C/c2cc3cncc(-c4ccc(F)cc4F)c3o2)S1 | 35 |

* * *

Target: PI3Kδ (p110δ/p85α)(h) (Homo sapiens)
Sequence (O00329 whole entry): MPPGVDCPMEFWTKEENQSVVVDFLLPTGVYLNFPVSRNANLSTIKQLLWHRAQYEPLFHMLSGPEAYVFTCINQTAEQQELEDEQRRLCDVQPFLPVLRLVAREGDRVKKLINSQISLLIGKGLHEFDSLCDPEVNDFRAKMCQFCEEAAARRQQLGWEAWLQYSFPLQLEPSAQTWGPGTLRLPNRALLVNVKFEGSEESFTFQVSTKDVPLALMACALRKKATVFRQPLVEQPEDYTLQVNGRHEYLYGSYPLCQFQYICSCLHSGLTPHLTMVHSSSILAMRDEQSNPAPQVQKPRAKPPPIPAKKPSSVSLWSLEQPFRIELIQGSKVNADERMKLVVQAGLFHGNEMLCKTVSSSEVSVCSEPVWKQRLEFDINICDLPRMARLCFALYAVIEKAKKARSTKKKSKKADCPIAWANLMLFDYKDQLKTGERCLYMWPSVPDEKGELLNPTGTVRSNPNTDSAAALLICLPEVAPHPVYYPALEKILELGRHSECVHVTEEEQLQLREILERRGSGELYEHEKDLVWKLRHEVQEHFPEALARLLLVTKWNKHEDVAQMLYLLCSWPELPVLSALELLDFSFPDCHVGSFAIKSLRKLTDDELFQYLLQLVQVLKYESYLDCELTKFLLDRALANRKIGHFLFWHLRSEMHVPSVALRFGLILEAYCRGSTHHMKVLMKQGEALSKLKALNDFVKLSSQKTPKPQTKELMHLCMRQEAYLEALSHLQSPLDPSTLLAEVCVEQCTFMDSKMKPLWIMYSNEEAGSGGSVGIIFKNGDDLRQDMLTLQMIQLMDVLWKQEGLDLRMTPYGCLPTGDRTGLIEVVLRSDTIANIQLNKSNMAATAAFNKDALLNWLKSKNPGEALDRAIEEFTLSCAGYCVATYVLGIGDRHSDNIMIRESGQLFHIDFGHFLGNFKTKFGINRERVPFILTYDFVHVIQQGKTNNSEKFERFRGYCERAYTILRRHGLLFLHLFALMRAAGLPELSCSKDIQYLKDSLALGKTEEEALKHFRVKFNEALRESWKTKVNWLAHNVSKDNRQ
Sequence (P27986 whole entry partner): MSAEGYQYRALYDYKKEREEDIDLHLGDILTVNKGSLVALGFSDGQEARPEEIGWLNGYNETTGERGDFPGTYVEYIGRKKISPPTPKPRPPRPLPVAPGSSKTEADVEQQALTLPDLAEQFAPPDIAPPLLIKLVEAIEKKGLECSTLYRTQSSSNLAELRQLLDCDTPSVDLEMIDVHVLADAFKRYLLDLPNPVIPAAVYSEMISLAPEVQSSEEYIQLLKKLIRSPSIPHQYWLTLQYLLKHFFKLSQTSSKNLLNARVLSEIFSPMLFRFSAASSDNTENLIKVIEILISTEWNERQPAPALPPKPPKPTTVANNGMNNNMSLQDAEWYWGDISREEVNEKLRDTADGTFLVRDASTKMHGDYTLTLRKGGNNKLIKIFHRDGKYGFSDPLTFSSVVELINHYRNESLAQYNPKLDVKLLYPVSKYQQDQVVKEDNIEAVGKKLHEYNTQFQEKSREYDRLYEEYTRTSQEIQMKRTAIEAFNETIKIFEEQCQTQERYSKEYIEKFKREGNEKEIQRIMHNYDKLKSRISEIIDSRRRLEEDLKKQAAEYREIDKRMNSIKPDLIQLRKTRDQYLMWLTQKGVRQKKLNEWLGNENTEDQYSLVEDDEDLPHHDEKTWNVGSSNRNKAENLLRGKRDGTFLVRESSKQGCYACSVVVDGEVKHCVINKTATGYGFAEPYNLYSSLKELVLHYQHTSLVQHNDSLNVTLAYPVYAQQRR
Assay: Assay for phosphatidylinositol 3-kinase delta (PI3Kδ) activity, PI3K-HTRF kit
Assay type: biochemical
Conditions: TR-FRET; enzyme 0.725 μg/ml, 10 μM PIP2, 10 μM ATP
satisfied if IC50 is below 500 nM. not satisfied if not; exact matches included in not satisfied.

| cpd-smiles | group-label |
| --- | --- |
| O=C1NC(=S)S/C1=C\c1cc2cncc(C#CC3CC3)c2o1 | not satisfied |
| COc1c(C)cc(-c2cncc3cc(/C=C4\SC(=S)NC4=O)oc23)cc1C | not satisfied |
| O=C1NC(=O)/C(=C/c2cc3cncc(C#Cc4ccc(OC(F)(F)F)cc4)c3o2)S1 | not satisfied |
| O=C1NC(=O)/C(=C/c2cc3cncc(-c4cccc(NS(=O)(=O)c5ccccc5)c4)c3o2)S1 | satisfied |
| O=C1NC(=O)/C(=C/c2cc3cncc(C#CC4CCCC4)c3o2)S1 | not satisfied |
| O=C1NC(=S)S/C1=C\c1cc2cncc(-c3ccc4c(c3)CCO4)c2o1 | not satisfied |
| COc1ccc(C#Cc2cncc3cc(/C=C4\SC(=S)NC4=O)oc23)cc1OC | satisfied |

* * *

Target: PI3K β (p110β/p85α)(h) (Homo sapiens)
Sequence (P42338 whole entry): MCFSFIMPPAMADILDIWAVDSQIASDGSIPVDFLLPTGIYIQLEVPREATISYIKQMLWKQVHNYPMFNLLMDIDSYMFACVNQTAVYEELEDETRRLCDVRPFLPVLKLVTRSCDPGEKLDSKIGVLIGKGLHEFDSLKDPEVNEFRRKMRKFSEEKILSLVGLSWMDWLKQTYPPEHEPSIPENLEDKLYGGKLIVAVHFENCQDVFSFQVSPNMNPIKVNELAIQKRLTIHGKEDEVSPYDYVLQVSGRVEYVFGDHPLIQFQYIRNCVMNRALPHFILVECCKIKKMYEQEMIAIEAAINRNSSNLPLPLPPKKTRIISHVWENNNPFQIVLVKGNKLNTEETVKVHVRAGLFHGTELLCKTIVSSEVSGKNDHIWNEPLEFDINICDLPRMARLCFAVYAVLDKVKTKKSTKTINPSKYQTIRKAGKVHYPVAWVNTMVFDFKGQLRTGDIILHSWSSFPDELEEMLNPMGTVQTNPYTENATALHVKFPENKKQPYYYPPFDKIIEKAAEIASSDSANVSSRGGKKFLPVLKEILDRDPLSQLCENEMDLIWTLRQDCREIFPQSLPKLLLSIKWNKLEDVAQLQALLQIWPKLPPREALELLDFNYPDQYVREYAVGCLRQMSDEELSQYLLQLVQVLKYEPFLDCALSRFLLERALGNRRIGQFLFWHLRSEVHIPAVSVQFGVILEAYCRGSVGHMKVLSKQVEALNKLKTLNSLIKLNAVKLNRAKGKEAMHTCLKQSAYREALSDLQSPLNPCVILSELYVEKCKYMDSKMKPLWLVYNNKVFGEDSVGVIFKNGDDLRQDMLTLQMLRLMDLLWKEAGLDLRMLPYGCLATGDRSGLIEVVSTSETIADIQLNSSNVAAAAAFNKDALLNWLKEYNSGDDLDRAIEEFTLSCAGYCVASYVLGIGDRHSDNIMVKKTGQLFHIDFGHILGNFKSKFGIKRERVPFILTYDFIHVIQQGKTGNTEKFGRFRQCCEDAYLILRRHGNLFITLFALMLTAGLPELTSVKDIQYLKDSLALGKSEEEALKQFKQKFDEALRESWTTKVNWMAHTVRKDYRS
Sequence (P27986 whole entry partner): as the sequence (P27986 whole entry partner) above
Assay: Assay for phosphatidylinositol 3-kinase beta (PI3Kβ) activity, PI3K-HTRF kit
Type: biochemical
Details: TR-FRET; enzyme 0.725 μg/ml, 10 μM PIP2, 10 μM ATP
1 (yes) if IC50 is below 700 nM. 0 (no) if not; exact matches included in 0 (no).

| cpd-smiles | group-label |
| --- | --- |
| COc1ncc(-c2cncc3cc(/C=C4\SC(=S)NC4=O)oc23)cc1C | 0 (no) |
| COC(=O)c1cccc(C#Cc2cncc3cc(/C=C4\SC(=O)NC4=O)oc23)c1 | 0 (no) |
| O=C1NC(=O)/C(=C/c2cc3cncc(-c4ccc(S(=O)(=O)N5CCCCC5)cc4)c3o2)S1 | 0 (no) |
| O=C1NC(=S)S/C1=C\c1cc2cncc(-c3ccc4c(c3)CCO4)c2o1 | 0 (no) |
| COc1c(C)cc(-c2cncc3cc(/C=C4\SC(=S)NC4=O)oc23)cc1C | 0 (no) |
| O=C1NC(=O)/C(=C/c2cc3cncc(-c4cc5ccccc5s4)c3o2)S1 | 0 (no) |
| CS(=O)(=O)c1c(F)cc(-c2cncc3cc(/C=C4\SC(=S)NC4=O)oc23)cc1F | 0 (no) |
| COc1cc(-c2cncc3cc(/C=C4\SC(=S)NC4=O)oc23)cc(Cl)c1O | 1 (yes) |
| N#Cc1ccc(C#Cc2cncc3cc(/C=C4\SC(=S)NC4=O)oc23)cc1 | 1 (yes) |
| CN1CCN(Cc2ccc(-c3cncc4cc(/C=C5\SC(=O)NC5=O)oc34)cc2)CC1 | 0 (no) |
| O=C1NC(=O)/C(=C/c2cc3cncc(C(=O)NC4CCCCC4)c3o2)S1 | 0 (no) |
| CCOc1ccc(-c2cncc3cc(/C=C4\SC(=O)NC4=O)oc23)cc1Cl | 0 (no) |
| CN(C)S(=O)(=O)c1ccc(-c2cncc3cc(/C=C4\SC(=O)NC4=O)oc23)cc1F | 0 (no) |
| O=C1NC(=O)/C(=C/c2cc3cncc(C#Cc4cccc(C(F)(F)F)c4)c3o2)S1 | 0 (no) |
| COc1ccc(NC(=O)c2cncc3cc(/C=C4\SC(=S)NC4=O)oc23)cc1 | 0 (no) |
| COc1ccc(C#Cc2cncc3cc(/C=C4\SC(=S)NC4=O)oc23)cc1OC | 1 (yes) |
| COC(=O)c1ccccc1C#Cc1cncc2cc(/C=C3\SC(=S)NC3=O)oc12 | 1 (yes) |
| COc1ccc(-c2cncc3cc(/C=C4\SC(=O)NC4=O)oc23)cc1 | 0 (no) |
| Cc1cc(-c2cncc3cc(/C=C4\SC(=O)NC4=O)oc23)ccc1S(=O)(=O)N1CCOCC1 | 0 (no) |
| O=C1NC(=O)/C(=C/c2cc3cncc(-c4ccc5c(c4)OCO5)c3o2)S1 | 1 (yes) |
| COc1ccc(-c2cncc3cc(/C=C4\SC(=O)NC4=O)oc23)cc1OC | 1 (yes) |
| CCOc1ccc(-c2cncc3cc(/C=C4\SC(=O)NC4=O)oc23)cc1C(F)(F)F | 0 (no) |
| O=C1NC(=O)/C(=C/c2cc3cncc(-c4ccc(S(=O)(=O)NCCO)cc4)c3o2)S1 | 0 (no) |
| Cc1ccccc1C#Cc1cncc2cc(/C=C3\SC(=S)NC3=O)oc12 | 0 (no) |
| Cn1cc(-c2cncc3cc(/C=C4\SC(=O)NC4=O)oc23)cn1 | 1 (yes) |
| O=C1NC(=O)/C(=C/c2cc3cncc(C#Cc4ccc(OC(F)(F)F)cc4)c3o2)S1 | 0 (no) |
| O=C1NC(=O)/C(=C/c2cc3cncc(C#CC4CCCC4)c3o2)S1 | 0 (no) |
| COc1c(C)cc(-c2cncc3cc(/C=C4\SC(=O)NC4=O)oc23)cc1C | 0 (no) |
| O=C1NC(=O)/C(=C/c2cc3cncc(C#Cc4ccccc4C(F)(F)F)c3o2)S1 | 0 (no) |
